Overview of recorded IC50, inhibition of pSTAT5 for various binders
- target or system: T1, human Type 1 mutCALR on Ba/F3 cells expressing MPL and Type 1 mutCALR (human)
- T1 chain: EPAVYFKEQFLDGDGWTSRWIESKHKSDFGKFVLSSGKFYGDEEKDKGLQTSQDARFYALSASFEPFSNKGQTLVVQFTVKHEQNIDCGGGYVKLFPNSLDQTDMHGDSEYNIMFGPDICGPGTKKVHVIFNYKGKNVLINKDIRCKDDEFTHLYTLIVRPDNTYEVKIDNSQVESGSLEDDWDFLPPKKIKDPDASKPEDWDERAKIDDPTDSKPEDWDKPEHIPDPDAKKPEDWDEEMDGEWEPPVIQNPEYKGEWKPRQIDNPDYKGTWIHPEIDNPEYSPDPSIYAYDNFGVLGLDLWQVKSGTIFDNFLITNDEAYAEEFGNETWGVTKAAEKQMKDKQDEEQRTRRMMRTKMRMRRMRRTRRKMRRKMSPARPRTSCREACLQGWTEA
- measurement notes: cell-based or functional assay
# answer = value followed by unit

Known IC50, inhibition of pSTAT5 results, listed for orientation:
1) anti-mutCALR antibody clone 20 (antibody, human IgG1, lambda, V domains shown, human IgG1) VH: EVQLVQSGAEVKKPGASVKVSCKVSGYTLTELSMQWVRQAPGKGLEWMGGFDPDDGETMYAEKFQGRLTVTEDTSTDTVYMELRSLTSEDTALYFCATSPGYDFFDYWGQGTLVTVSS VL: SYVLTQPPSVSVAPGKTARITCGGNNIGSKGVHWYQQKPGQAPVLVVYDDSDRPSGIPERFSGSNSGNTATLTINRVEAGDEADYYCQVWDSSNDLLIFGGGTKLTVLG : 0.018 µg/mL
2) anti-mutCALR antibody clone 26 (antibody, human IgG1, lambda, V domains shown, human IgG1) VH: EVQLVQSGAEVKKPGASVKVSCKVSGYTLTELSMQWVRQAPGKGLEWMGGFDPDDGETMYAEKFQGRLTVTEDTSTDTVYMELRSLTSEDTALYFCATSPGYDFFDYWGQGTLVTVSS VL: SYVLTQPPSVSVAPGQTARITCGGNNIGSKSVHWYQQKPGQAPVLVVYDDSDRPSGIPERFSGSNSGNTATLTISRVEAGDEADYYCQVWDSSIDHLIFGGGTKVTVLG : 0.125 µg/mL

Continue with the binder presented below.
Just so you know, measured IC50, inhibition of pSTAT5 for anti-mutCALR antibody clone 19 (antibody, human IgG1, lambda, V domains shown) VH: EVQLVQSGAEVKKPGASVKVSCKVSGYTLTELSMQWVRQAPGKGLEWMGGFDPDDGETMYAEKFQGRLTVTEDTPTDTVYMELRSLTSEDTALYFCATSPGYDFFDYWGQGTLVTVSS VL: SYVLTQPLSVSVALGQTARITCGGSNIGDIRVHWYQQKPGQAPVLVVYDDSDRPSGIPERFSGSNSGNTATLTINRVEAGDEADYYCQVWDSSNDLLIFGGGTKLTVLG came out at 0.062 µg/mL
